# maps each entry to its GI50
tested on: KM12; assay: NCI tumour cell line growth inhibition, 48 h
Active and inactive are the calls of the source. No stated cut-off is given here; in the data, active = GI50 up to about 1.1 µM and inactive = higher.

Worked set:
COc1cc(S(=O)(=O)Nc2ccc(-c3csc(N4C(=O)CSC4c4ccccc4O)n3)cc2)ccc1Cl (stereo not drawn)
38.4 µM (inactive)
COc1ccc(Cn2c3ccc([N+](=O)[O-])cc3c(=O)n2Cc2ccccn2)cc1
92.5 µM (inactive)
CC(=O)OCC1OC(n2c(-c3ccc(C)cc3)cc(-c3ccccc3)c(C#N)c2=S)C(OC(C)=O)C(OC(C)=O)C1OC(C)=O (stereo not drawn)
> 100 µM (inactive)

Let's switch to this molecule now.
Lab note: record GI50 of CCOC(=O)NN(C(=O)OCC)C(C(=O)c1ccccc1)N(NC(=O)OCC)C(=O)OCC tested on KM12.
> 100 µM (inactive)
